Where do the numbers come from? From patent US8080657B2.

System: Wnt signaling
Assay: TopFlash reporter gene bioassay in SW480 cells
Assay type: cell-based
Conditions: Homo sapiens, SW480, TopFlash reporter gene assay, inhibition of Wnt signaling; read-out: RGA, IC50 (μM) TopF
Each record is given condition met if its reported IC50 is strictly below 2 µM. Records at or above 2 µM are given condition not met.

[[record]]
chemical_string = "C=CCN1CC(=O)N2[C@@H](Cc3ccc(O)cc3)C(=O)N(Cc3cccc(-c4ccncc4)c3)C[C@@H]2N1C(=O)NCc1ccccc1"
assigned_class = "condition met"

[[record]]
chemical_string = "C=CCN1CC(=O)N2[C@@H](Cc3ccc(O)cc3)C(=O)N(Cc3ccc4ncoc4c3)C[C@@H]2N1C(=O)NCc1ccccc1"
assigned_class = "condition not met"

[[record]]
chemical_string = "C=CCN1CC(=O)N2[C@@H](Cc3ccc(O)cc3)C(=O)N(Cc3cccc(-c4cccc(N)c4)c3)C[C@@H]2N1C(=O)NCc1ccccc1"
assigned_class = "condition met"

[[record]]
chemical_string = "C=CCN1CC(=O)N2[C@@H](Cc3ccc(O)c(Br)c3)C(=O)N(Cc3cccc4scnc34)C[C@@H]2N1C(=O)NCc1ccccc1"
assigned_class = "condition not met"

[[record]]
chemical_string = "C=CCN1CC(=O)N2[C@@H](Cc3ccc(O)cc3)C(=O)N(Cc3ccc(F)c4scnc34)C[C@@H]2N1C(=O)NCC1CCCCC1"
assigned_class = "condition not met"

[[record]]
chemical_string = "C=CCN1CC(=O)N2[C@@H](Cc3ccc(O)cc3)C(=O)N(Cc3cccc(C(=O)OC)c3[N+](=O)[O-])C[C@@H]2N1C(=O)NCc1ccccc1"
assigned_class = "condition met"


* * *

Tested on: Wnt signaling
Experiment: TopFlash reporter gene bioassay in SW480 cells
Format: cell-based
Settings: Homo sapiens, SW480, TopFlash reporter gene assay, inhibition of Wnt signaling; read-out: RGA, IC50 (μM) TopF
Assay metric: IC50 (µM)

[[record]]
compound = "C=CCN1CC(=O)N2C(Cc3ccc(O)cc3)C(=O)N(Cc3cccc(-c4ccccn4)c3)C[C@@H]2N1C(=O)NCc1ccccc1 (stereo partly drawn)"
assay_metric = "IC50"
measured = 0.8

[[record]]
compound = "C=CCN1CC(=O)N2[C@@H](Cc3ccc(O)cc3)C(=O)N(Cc3ccccc3SC)C[C@@H]2N1C(=O)NCc1ccccc1"
assay_metric = "IC50"
measured = 0.42

[[record]]
compound = "C=CCN1CC(=O)N2[C@@H](Cc3ccc(O)cc3)C(=O)N(Cc3cccc(C(C)=O)c3)C[C@@H]2N1C(=O)NCc1ccccc1"
assay_metric = "IC50"
measured = 0.9

[[record]]
compound = "C=CCN1CC(=O)N2[C@@H](Cc3ccc(O)cc3)C(=O)N(Cc3cccc(C(=O)NCCOC)c3)C[C@@H]2N1C(=O)NCc1ccccc1"
assay_metric = "IC50"
measured = 1.04

[[record]]
compound = "C=CCN1CC(=O)N2[C@@H](Cc3ccc(O)cc3)C(=O)N(Cc3cccc(Cl)c3N(C)C)C[C@@H]2N1C(=O)NCc1ccccc1"
assay_metric = "IC50"
measured = 1.54

[[record]]
compound = "C=CCN1CC(=O)N2[C@@H](Cc3ccc(O)cc3)C(=O)N(Cc3cccc(OC)c3OCC3CC3)C[C@@H]2N1C(=O)NCc1ccccc1"
assay_metric = "IC50"
measured = 0.95


* * *

The reader will find reported IC50 values listed item by item below.
System: Wnt signaling
Assay: TopFlash reporter gene bioassay in SW480 cells
Assay type: cell-based
Conditions: Homo sapiens, SW480, TopFlash reporter gene assay, inhibition of Wnt signaling; read-out: RGA, IC50 (μM) TopF
Assay metric: IC50 (µM)

[[record]]
chemical_string = "C=CCN1CC(=O)N2[C@@H](Cc3ccc(O)cc3)C(=O)N(Cc3cccc(N(C)C(=O)OC)c3)C[C@@H]2N1C(=O)NCc1ccccc1"
unit = "µM"
measured = 1.35

[[record]]
chemical_string = "C=CCN1CC(=O)N2[C@@H](Cc3ccc(O)cc3)C(=O)N(Cc3cn(S(=O)(=O)c4ccc(C)cc4)c4ccccc34)C[C@@H]2N1C(=O)NCc1ccccc1"
unit = "µM"
measured = 3.61

[[record]]
chemical_string = "C=CCN1CC(=O)N2[C@@H](Cc3ccc(O)cc3)C(=O)N(Cc3cccc(-c4ccccc4OC)c3)C[C@@H]2N1C(=O)NCc1ccccc1"
unit = "µM"
measured = 1.61

[[record]]
chemical_string = "C=CCN1CC(=O)N2[C@@H](Cc3ccc(O)cc3)C(=O)N(Cc3cccc(-c4ccc(F)cc4)n3)C[C@@H]2N1C(=O)NCc1ccccc1"
unit = "µM"
measured = 1.91


* * *

Target: cDNA-expressed human hepatic CYP3A4 (Homo sapiens, UniProt P08684)
Construct: purchased BD Gentest 456202
Sequence (P08684 whole entry): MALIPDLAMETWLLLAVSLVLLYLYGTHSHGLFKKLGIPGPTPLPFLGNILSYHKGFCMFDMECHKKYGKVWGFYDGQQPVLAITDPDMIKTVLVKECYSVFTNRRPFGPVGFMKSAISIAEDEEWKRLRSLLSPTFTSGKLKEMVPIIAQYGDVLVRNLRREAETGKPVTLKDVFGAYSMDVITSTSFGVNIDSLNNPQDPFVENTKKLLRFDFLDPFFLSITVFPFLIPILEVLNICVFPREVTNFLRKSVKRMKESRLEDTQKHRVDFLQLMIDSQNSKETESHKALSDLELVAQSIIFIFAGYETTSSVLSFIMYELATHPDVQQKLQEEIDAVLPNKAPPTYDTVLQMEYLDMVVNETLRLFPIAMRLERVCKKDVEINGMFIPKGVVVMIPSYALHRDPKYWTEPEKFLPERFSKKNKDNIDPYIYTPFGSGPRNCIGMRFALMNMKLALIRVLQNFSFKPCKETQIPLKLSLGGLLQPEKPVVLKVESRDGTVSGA
Assay: P450 CYP3A4 inhibitory activity screening (BFC substrate, fluorescence)
Type: biochemical
Settings: P450 CYP3A4 inhibitory activity screening, fluorescent assay; read-out: CYP3A4 inhibition, IC50 (μM) fluorescent assay
Assay metric: IC50

[[record]]
molecule = "C=CCN1CC(=O)N2[C@@H](Cc3ccccc3)C(=O)N(Cc3cccc(C(=O)O)c3)C[C@@H]2N1C(=O)NCc1ccccc1 [compound 48]"
measured = "> 50 µM"

[[record]]
molecule = "C=CCN1CC(=O)N2[C@@H](Cc3ccc(O)cc3)C(=O)N(Cc3cccc4c3nc(C(F)(F)F)n4C)C[C@@H]2N1C(=O)NCc1ccccc1 [compound 45]"
measured = "> 10 µM"

[[record]]
molecule = "O=C(O)c1cccc(CN2C[C@H]3N(C(=O)CN(Cc4ccccc4)N3C(=O)NCc3ccccc3)[C@@H](Cc3ccc(O)cc3)C2=O)c1 [compound 49]"
measured = "> 50 µM"

[[record]]
molecule = "C=CCN1CC(=O)N2[C@@H](Cc3ccc(O)cc3)C(=O)N(Cc3cccc(N4CCCC4=O)c3)C[C@@H]2N1C(=O)NCc1ccccn1 [compound 46]"
measured = "> 50 µM"

